System: Malme-3M
PROTOCOL TEXT: NCI tumour cell line growth inhibition, 48 h
The source made the active and inactive calls. Rule as the data show it: active = GI50 up to about 1.1 µM and inactive = higher.
Outcomes you can answer with include only these: class 1 for active, class 0 for inactive

Solved entries:
NC(=S)NS(=O)(=O)c1ccc(F)cc1
class 0
COCCOCCOCCC(=O)NC1CC2CCC1(C)C2(C)C (stereo not drawn)
class 0
C=CCN1C(=O)/C(=C/c2ccc(Cl)cc2)N=C1SC/C=C/C
class 0
Cn1cnc(/C=C/C#N)c1
class 0

Moving on to the next molecule.
-- ask Please state the recorded outcome for this molecule: `COc1ccc2nc3cccc([N+](=O)[O-])c3c(NCCN(C)C)c2c1`
-- reply class 1

Origin of the recorded values: ChEMBL document CHEMBL1201862
